# key: entry, value: protein stability index
B1: EPB41L3 (parent)
chain: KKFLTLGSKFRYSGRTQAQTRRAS

- Variants of: B1
- protocol_text: protein stability index of a GFP-peptide fusion (GPS, HEK-293T) (PSI 1-6); higher = more stable;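 further: lentivirally expressed fusions sorted by FACS into six bins by GFP to DsRed ratio, PSI derived from sequencing read proportions per bin multiplied by bin number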
- assay_setup: c terminus: a fixed tail appended
A bare number is all that is needed in reply.

Task: Supply protein stability index value. Item: T5A
Result: 3.78

Task: Supply protein stability index value. Item: G7Q
Result: 2.85

Task: Supply protein stability index value. Item: T16K
Result: 3.02

Task: Supply protein stability index value. Item: T20S
Result: 3.56

Task: Supply protein stability index value. Item: R11K
Result: 2.92

Task: Supply protein stability index value. Item: S13Y
Result: 3.1

Task: Supply protein stability index value. Item: A18Y
Result: 3.11

Task: Supply protein stability index value. Item: F3N
Result: 3.59
